This listing pairs compounds with measured IC50.
# subject_of_test: tubulin (Sus scrofa, UniProt P02550+P02554)
# Sequence (P02550 whole entry): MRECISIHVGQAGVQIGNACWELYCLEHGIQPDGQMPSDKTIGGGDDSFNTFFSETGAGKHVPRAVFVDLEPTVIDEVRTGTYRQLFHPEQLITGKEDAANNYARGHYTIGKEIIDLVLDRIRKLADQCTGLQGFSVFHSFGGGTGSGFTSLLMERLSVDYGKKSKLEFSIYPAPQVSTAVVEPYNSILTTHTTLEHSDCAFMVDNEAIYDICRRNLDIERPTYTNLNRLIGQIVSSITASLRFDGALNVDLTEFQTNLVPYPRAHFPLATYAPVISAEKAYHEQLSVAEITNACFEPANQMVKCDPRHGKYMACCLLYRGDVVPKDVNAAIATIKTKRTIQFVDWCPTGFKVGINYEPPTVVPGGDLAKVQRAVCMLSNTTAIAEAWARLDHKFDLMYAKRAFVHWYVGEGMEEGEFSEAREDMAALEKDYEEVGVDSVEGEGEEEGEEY
# Sequence (P02554 whole entry): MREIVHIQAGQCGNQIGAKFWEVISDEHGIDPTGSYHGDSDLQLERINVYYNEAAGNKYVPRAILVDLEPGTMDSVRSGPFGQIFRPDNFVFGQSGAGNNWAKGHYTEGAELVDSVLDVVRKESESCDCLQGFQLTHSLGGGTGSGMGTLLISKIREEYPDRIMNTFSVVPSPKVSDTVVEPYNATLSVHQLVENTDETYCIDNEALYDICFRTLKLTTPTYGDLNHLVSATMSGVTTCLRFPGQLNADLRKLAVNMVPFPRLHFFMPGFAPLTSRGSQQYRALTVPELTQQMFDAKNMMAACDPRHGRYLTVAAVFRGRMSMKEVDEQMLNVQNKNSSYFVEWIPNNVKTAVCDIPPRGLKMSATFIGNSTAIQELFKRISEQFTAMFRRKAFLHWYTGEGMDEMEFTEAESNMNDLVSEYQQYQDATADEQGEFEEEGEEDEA
# run_description: Cell-free tubulin polymerization assay
# Format: biochemical
# experimental_parameters: colchicine as positive control, read-out: IC50 against tubulin polymerization
Numeric answer only, unit µM assumed.

1) COc1ccc(/C=C/C(=O)c2cc(Br)cc3cc(-c4ccc(F)cc4)oc23)cc1 [3i] ... 5.51e-05
2) COc1ccc(-c2cc3cc(Br)cc(C(=O)/C=C/c4ccc(Cl)cc4)c3o2)cc1 [3w] ... 48.4
3) O=C(/C=C/c1ccccc1)c1cc(Br)cc2cc(-c3ccc(F)cc3)oc12 [3f] ... 23.3

Here's the next entry for you.
Value of IC50 reported for the compound O=C(/C=C/c1ccc(F)cc1)c1cc(Br)cc2cc(-c3cccc(F)c3)oc12 [3l] is 3.98

---

# System: MCF-7 cell line
# run_description: MTT cytotoxicity assay against the MCF-7 cell line
# experimental_parameters: Homo sapiens, MCF7, 48 h, read-out: MCF-7 Cell Line IC50 (μM) ± SD
Starred links: 1 amine or outer side, 2 acyl side, 3 side chain; linkers in the order of their positions; H or OH if unused. Positions of bridges follow the written chain, without caps; N, C: chain ends. Non-standard residues stand in square brackets, D forms with d. Residues, ends and D or L forms follow the SMILES beside them. Chains are numbered I, II in the order given. Actinocin(9to1) = Cc1c2oc3c(C)ccc(C(=O)[*:1])c3nc-2c(C(=O)[*:2])c(N)c1=O; NMeV = CN[C@H](C(=O)O)C(C)C; Sar = CNCC(=O)O
Threshold 20 µM: IC50 strictly smaller gives criterion met, otherwise criterion not met.

Use these answered entries as a reference point.
1) O=C(/C=C/c1ccccc1)c1cc(Br)cc2cc(-c3ccccc3)oc12 [3a] ... criterion not met
2) O=C(/C=C/c1ccc(Cl)cc1)c1cc(Br)cc2cc(-c3cccc(Cl)c3)oc12 [3r] ... criterion not met
3) O=C(/C=C/c1ccc(F)cc1)c1cc(Br)cc2cc(-c3cccc(F)c3)oc12 [3l] ... criterion not met
4) COc1ccc(/C=C/C(=O)c2cc(Br)cc3cc(-c4cccc(F)c4)oc23)cc1 [3n] ... criterion not met
5) O=C(/C=C/c1ccc(OC(F)(F)F)cc1)c1cc(Br)cc2cc(-c3ccccc3)oc12 [3e] ... criterion met
6) O=C(/C=C/c1ccc(OC(F)(F)F)cc1)c1cc(Br)cc2cc(-c3cccc(F)c3)oc12 [3o] ... criterion met
7) COc1ccc(-c2cc3cc(Br)cc(C(=O)/C=C/c4ccc(OC(F)(F)F)cc4)c3o2)cc1 [3y] ... criterion not met
8) O=C(/C=C/c1ccc(F)cc1)c1cc(Br)cc2cc(-c3cccc(Cl)c3)oc12 [3q] ... criterion not met
9) COc1ccc(/C=C/C(=O)c2cc(Br)cc3cc(-c4cccc(Cl)c4)oc23)cc1 [3s] ... criterion met
10) O=C(/C=C/c1ccccc1)c1cc(Br)cc2cc(-c3cccc(F)c3)oc12 [3k] ... criterion not met

Exercise: Is the reported IC50 for Cc1c2oc3c(C)ccc(C(=O)N[C@@H]4C(=O)N[C@H](C(C)C)C(=O)N5CCC[C@H]5C(=O)N(C)CC(=O)N(C)[C@@H](C(C)C)C(=O)O[C@@H]4C)c3nc-2c(C(=O)N[C@@H]2C(=O)N[C@H](C(C)C)C(=O)N3CCC[C@H]3C(=O)N(C)CC(=O)N(C)[C@@H](C(C)C)C(=O)O[C@@H]2C)c(N)c1=O [Actinomycin D, reference compound] (I: T[dV]P[Sar][NMeV] / II: T[dV]P[Sar][NMeV]; ester I:1-I:C, II:1-II:C; linker I:N-II:N via Actinocin(9to1)) strictly below 20 µM?
Key: criterion not met

---

# System: MCF-7 cell line
# run_description: MTT cytotoxicity assay against the MCF-7 cell line
# experimental_parameters: read-out: MCF-7 Cell Line IC50 (μM) ± SD; MTT, 48 h incubation, three individual experiments
test_readout: IC50 (µM)
Express your answer in µM, writing the number without its unit.

1. O=C(/C=C/c1ccc(OC(F)(F)F)cc1)c1cc(Br)cc2cc(-c3ccc(F)cc3)oc12 [3j] ... 16

IC50 in this record for O=C(/C=C/c1ccc(OC(F)(F)F)cc1)c1cc(Br)cc2cc(-c3cccc(Cl)c3)oc12 [3t] : 26.6

---

# subject_of_test: EGFR-TK (Homo sapiens)
# Sequence (P00533 25-1210): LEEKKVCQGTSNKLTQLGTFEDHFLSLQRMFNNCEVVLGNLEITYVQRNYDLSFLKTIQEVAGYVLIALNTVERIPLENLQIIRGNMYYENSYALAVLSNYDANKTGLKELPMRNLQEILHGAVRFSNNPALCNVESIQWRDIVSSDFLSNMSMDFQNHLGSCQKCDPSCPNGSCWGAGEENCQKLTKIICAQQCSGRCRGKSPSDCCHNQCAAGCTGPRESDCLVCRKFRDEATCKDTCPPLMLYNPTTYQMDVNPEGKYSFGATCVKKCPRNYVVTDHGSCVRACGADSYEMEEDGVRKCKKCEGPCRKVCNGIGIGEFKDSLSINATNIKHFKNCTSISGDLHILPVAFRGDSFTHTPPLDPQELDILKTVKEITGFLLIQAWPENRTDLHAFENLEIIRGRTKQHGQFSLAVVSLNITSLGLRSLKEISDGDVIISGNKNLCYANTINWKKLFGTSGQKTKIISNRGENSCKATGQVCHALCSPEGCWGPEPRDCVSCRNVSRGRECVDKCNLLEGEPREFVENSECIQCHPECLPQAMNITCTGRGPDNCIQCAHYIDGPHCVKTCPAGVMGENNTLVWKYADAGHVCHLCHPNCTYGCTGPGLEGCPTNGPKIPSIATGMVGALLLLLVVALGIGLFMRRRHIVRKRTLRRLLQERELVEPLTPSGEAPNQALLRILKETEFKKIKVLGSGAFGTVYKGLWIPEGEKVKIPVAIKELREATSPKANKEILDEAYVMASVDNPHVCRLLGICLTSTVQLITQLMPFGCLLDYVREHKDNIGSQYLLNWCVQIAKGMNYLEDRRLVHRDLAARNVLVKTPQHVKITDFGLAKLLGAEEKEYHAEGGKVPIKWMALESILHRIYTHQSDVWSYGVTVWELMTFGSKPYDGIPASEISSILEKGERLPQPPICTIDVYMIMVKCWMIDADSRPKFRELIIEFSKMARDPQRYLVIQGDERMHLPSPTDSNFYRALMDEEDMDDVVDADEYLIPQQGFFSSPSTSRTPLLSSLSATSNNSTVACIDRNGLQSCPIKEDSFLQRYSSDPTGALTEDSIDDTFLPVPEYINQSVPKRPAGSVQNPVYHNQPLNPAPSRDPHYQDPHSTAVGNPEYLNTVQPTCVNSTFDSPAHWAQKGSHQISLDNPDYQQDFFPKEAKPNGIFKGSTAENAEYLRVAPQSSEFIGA
Starred links: 1 amine or outer side, 2 acyl side, 3 side chain; linkers in the order of their positions; H or OH if unused. Positions of bridges follow the written chain, without caps; N, C: chain ends. Non-standard residues stand in square brackets, D forms with d. Residues, ends and D or L forms follow the SMILES beside them. Chains are numbered I, II in the order given. Actinocin(9to1) = Cc1c2oc3c(C)ccc(C(=O)[*:1])c3nc-2c(C(=O)[*:2])c(N)c1=O; NMeV = CN[C@H](C(=O)O)C(C)C; Sar = CNCC(=O)O
test_readout: IC50

Some compounds with known IC50 results, for comparison:
1) O=C(/C=C/c1ccc(F)cc1)c1cc(Br)cc2cc(-c3ccccc3)oc12 [3b] ... 0.17 µM
2) COc1ccc(-c2cc3cc(Br)cc(C(=O)/C=C/c4ccc(F)cc4)c3o2)cc1 [3v] ... 0.15 µM
3) O=C(/C=C/c1ccc(OC(F)(F)F)cc1)c1cc(Br)cc2cc(-c3cccc(F)c3)oc12 [3o] ... 0.12 µM

Query COc1ccc(/C=C/C(=O)c2cc(Br)cc3cc(-c4ccc(F)cc4)oc23)cc1 [3i] on EGFR-TK (Homo sapiens); IC50 returned: 0.09 µM

Observed IC50, EGFR-TK (Homo sapiens), O=C(/C=C/c1ccccc1)c1cc(Br)cc2cc(-c3cccc(Cl)c3)oc12 [3p] : 0.17 µM

# Cc1c2oc3c(C)ccc(C(=O)N[C@@H]4C(=O)N[C@H](C(C)C)C(=O)N5CCC[C@H]5C(=O)N(C)CC(=O)N(C)[C@@H](C(C)C)C(=O)O[C@@H]4C)c3nc-2c(C(=O)N[C@@H]2C(=O)N[C@H](C(C)C)C(=O)N3CCC[C@H]3C(=O)N(C)CC(=O)N(C)[C@@H](C(C)C)C(=O)O[C@@H]2C)c(N)c1=O [Actinomycin D, reference compound] (I: T[dV]P[Sar][NMeV] / II: T[dV]P[Sar][NMeV]; ester I:1-I:C, II:1-II:C; linker I:N-II:N via Actinocin(9to1)) with EGFR-TK (Homo sapiens): IC50 is 0.04 µM

---

# pIC50 per record follows
# subject_of_test: tubulin (Sus scrofa, UniProt P02550+P02554)
# run_description: Cell-free tubulin polymerization assay
# experimental_parameters: colchicine as positive control, read-out: IC50 against tubulin polymerization
Convention used: pIC50 is expressed as -log10 of the molar concentration.

// worked examples, pIC50 included
1. O=C(/C=C/c1ccc(OC(F)(F)F)cc1)c1cc(Br)cc2cc(-c3cccc(F)c3)oc12 ... 9.75
2. O=C(/C=C/c1ccccc1)c1cc(Br)cc2cc(-c3cccc(F)c3)oc12 ... 4.11
3. O=C(/C=C/c1ccc(OC(F)(F)F)cc1)c1cc(Br)cc2cc(-c3cccc(Cl)c3)oc12 ... 5.55

// sample O=C(/C=C/c1ccc(F)cc1)c1cc(Br)cc2cc(-c3ccccc3)oc12 , its pIC50 was 4.58

get_value(item= O=C(/C=C/c1ccc(Cl)cc1)c1cc(Br)cc2cc(-c3ccccc3)oc12 , readout=pIC50) returns 4.58

The recorded pIC50 for entry COc1ccc(/C=C/C(=O)c2cc(Br)cc3cc(-c4ccccc4)oc23)cc1 equals 4.46

For record O=C(/C=C/c1ccc(F)cc1)c1cc(Br)cc2cc(-c3cccc(Cl)c3)oc12 the listed pIC50 is 4.29

Query O=C(/C=C/c1ccccc1)c1cc(Br)cc2cc(-c3ccccc3)oc12 yields pIC50 of 4.81

---

# Test system: MCF-7 cell line
# run_description: MTT cytotoxicity assay against the MCF-7 cell line
# experimental_parameters: Homo sapiens, MCF7, 48 h, read-out: MCF-7 Cell Line IC50 (μM) ± SD
// boundary case: IC50 equal to 50 µM maps to NOT MET; strictly smaller maps to MET

1. O=C(/C=C/c1ccc(Cl)cc1)c1cc(Br)cc2cc(-c3ccccc3)oc12 [3c] ... NOT MET
2. O=C(/C=C/c1ccccc1)c1cc(Br)cc2cc(-c3ccc(F)cc3)oc12 [3f] ... MET
3. COc1ccc(/C=C/C(=O)c2cc(Br)cc3cc(-c4ccc(OC)cc4)oc23)cc1 [3x] ... NOT MET
4. COc1ccc(-c2cc3cc(Br)cc(C(=O)/C=C/c4ccc(F)cc4)c3o2)cc1 [3v] ... MET
5. O=C(/C=C/c1ccc(Cl)cc1)c1cc(Br)cc2cc(-c3cccc(F)c3)oc12 [3m] ... MET
6. O=C(/C=C/c1ccc(F)cc1)c1cc(Br)cc2cc(-c3ccccc3)oc12 [3b] ... MET

Now let's try a different one.
Exercise: In plain terms, does O=C(/C=C/c1ccc(Cl)cc1)c1cc(Br)cc2cc(-c3ccc(F)cc3)oc12 [3h] come in under 50 µM for IC50?
Key: NOT MET
